Subject Of Test: Delta-type opioid receptor (Mus musculus)
Sequence (P32300 whole entry): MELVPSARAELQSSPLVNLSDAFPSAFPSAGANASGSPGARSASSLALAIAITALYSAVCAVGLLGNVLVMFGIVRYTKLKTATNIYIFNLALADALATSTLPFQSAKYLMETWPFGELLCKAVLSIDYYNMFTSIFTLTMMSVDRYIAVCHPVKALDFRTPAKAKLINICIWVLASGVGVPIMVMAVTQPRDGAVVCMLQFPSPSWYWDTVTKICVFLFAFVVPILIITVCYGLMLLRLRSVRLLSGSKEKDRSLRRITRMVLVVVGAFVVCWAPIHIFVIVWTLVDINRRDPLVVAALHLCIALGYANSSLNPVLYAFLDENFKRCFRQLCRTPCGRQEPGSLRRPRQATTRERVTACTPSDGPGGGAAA
Assay Explanation: Agonist activity at delta opioid receptor in mouse vas deferens assessed as inhibition of electrically-evoked muscle contraction
Format: functional, tissue-based
Entries and their measured pIC50 follow.
# log scale: pIC50 equals minus log10 of the concentration in mol/L

N[C@@H](Cc1ccc(O)cc1)C(=O)N[C@@H]1C/C=C\C[C@H](C(=O)O)NC(=O)[C@H](Cc2ccccc2)NC(=O)CNC1=O : 9.23
N[C@@H](Cc1ccc(O)cc1)C(=O)N[C@@H]1C/C=C/C[C@H](C(=O)O)NC(=O)[C@H](Cc2ccccc2)NC(=O)CNC1=O : 9.12
C=CC[C@@H](NC(=O)[C@H](Cc1ccccc1)NC(=O)CNC(=O)[C@@H](CC=C)NC(=O)[C@@H](N)Cc1ccc(O)cc1)C(=O)O : 8.24

Inquiry: Reported pIC50 for N[C@@H](Cc1ccc(O)cc1)C(=O)N[C@@H]1CCCC[C@H](C(=O)O)NC(=O)[C@H](Cc2ccccc2)NC(=O)CNC1=O : what is it?
Reply text: 8.47

###

Entries and their measured IC50 follow.
Subject Of Test: UniProt P97266
Sequence (P97266 whole entry): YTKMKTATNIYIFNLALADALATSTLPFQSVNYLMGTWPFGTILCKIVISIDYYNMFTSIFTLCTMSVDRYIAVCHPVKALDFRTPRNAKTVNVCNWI
Assay Explanation: Agonist activity at mu opioid receptor in isolated guinea pig ileum assessed as inhibition of electrically-evoked myenteric muscle contraction
Give your result in nM as a bare value.

N[C@@H](Cc1ccc(O)cc1)C(=O)N[C@@H]1CCCC[C@H](C(=O)O)NC(=O)[C@H](Cc2ccccc2)NC(=O)CNC1=O : 59
N[C@@H](Cc1ccc(O)cc1)C(=O)N[C@@H]1C/C=C\C[C@H](C(=O)O)NC(=O)[C@H](Cc2ccccc2)NC(=O)CNC1=O : 5.3
C=CC[C@@H](NC(=O)[C@H](Cc1ccccc1)NC(=O)CNC(=O)[C@@H](CC=C)NC(=O)[C@@H](N)Cc1ccc(O)cc1)C(=O)O : 34

Continue with the next molecule.
Inquiry: Reported IC50 for N[C@@H](Cc1ccc(O)cc1)C(=O)N[C@@H]1C/C=C/C[C@H](C(=O)O)NC(=O)[C@H](Cc2ccccc2)NC(=O)CNC1=O : what is it?
Reply text: 5.2

###

These records show Ki for Kappa-type opioid receptor (Cavia porcellus, UniProt P41144).
Give your result in nM as a bare value.

Recorded results for 3 compounds are shown here.
N[C@@H](Cc1ccc(O)cc1)C(=O)N[C@@H]1C/C=C/C[C@H](C(=O)O)NC(=O)[C@H](Cc2ccccc2)NC(=O)CNC1=O : 74.8
N[C@@H](Cc1ccc(O)cc1)C(=O)N[C@@H]1C/C=C\C[C@H](C(=O)O)NC(=O)[C@H](Cc2ccccc2)NC(=O)CNC1=O : 576
C=CC[C@@H](NC(=O)[C@H](Cc1ccccc1)NC(=O)CNC(=O)[C@@H](CC=C)NC(=O)[C@@H](N)Cc1ccc(O)cc1)C(=O)O : 3870

Continue with the next compound.
Inquiry: I'm curious: which Ki was measured for N[C@@H](Cc1ccc(O)cc1)C(=O)N[C@@H]1CCCC[C@H](C(=O)O)NC(=O)[C@H](Cc2ccccc2)NC(=O)CNC1=O tested on Kappa-type opioid receptor (Cavia porcellus, UniProt P41144)?
Reply text: 3960
